# Target Of Assay: Phosphatidylethanolamine-binding protein 1 (Homo sapiens); note: in the data inactive means no Kd found up to 30 µM
# Sequence (P30086 whole entry): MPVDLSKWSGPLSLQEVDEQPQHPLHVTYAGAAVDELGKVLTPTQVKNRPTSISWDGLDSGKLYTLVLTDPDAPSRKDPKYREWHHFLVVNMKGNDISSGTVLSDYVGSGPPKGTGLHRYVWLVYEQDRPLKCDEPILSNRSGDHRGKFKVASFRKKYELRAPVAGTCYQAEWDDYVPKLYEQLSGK
Activity calls are given as the source filed them.
Quantity Name: Kd

1. COCCN1CCN(Cc2ccc(-c3n[nH]c4c3C(=O)c3c(NC(=O)NN5CCOCC5)cccc3-4)cc2)CC1; > 30 µM (inactive)
2. COc1ccc(-c2ccc3ncc4c(c3c2)n(-c2ccc(N3CCNCC3)c(C(F)(F)F)c2)c(=O)n4C)cn1 [BGT-226 FREE BASE]; > 30 µM (inactive)
3. CNC(=O)c1cccc(-c2ccc3c(N4CCOC[C@@H]4C)nc(N4CCOC[C@@H]4C)nc3n2)c1; > 30 µM (inactive)
4. O=c1[nH]c([C@@H]2CCCN2)nc2c1oc1ccc(Cl)cc12; > 30 µM (inactive)
5. Cn1cnc2c(F)c(Nc3ccc(Br)cc3Cl)c(C(=O)NOCCO)cc21; > 30 µM (inactive)
6. CNC(=O)c1cc(COc2nnc(Nc3ccc(Cl)cc3)c3ccoc23)ccn1; > 30 µM (inactive)
7. C=CCn1c(=O)c2cnc(Nc3ccc(N4CCN(C)CC4)cc3)nc2n1-c1cccc(C(C)(C)O)n1; > 30 µM (inactive)
8. CCOc1ccn(-c2ccc(F)cc2)c(=O)c1C(=O)Nc1ccc(Oc2ccnc(N)c2Cl)c(F)c1; > 30 µM (inactive)
9. CN(C)C/C=C/C(=O)Nc1cc2c(Nc3ccc(F)c(Cl)c3)ncnc2cc1O[C@H]1CCOC1; > 30 µM (inactive)
10. COc1cc(F)c(F)c(Nc2ccc(I)cc2F)c1NS(=O)(=O)C1(C[C@H](O)CO)CC1; > 30 µM (inactive)
11. Cc1ccc(C(=O)Nc2ccc(Oc3cc4cnn(C)c4cc3-c3cn[nH]c3)c(F)c2)c(=O)n1-c1ccc(F)cc1; > 30 µM (inactive)
12. NC[C@@](O)(c1ccc(Cl)cc1)c1ccc(-c2cn[nH]c2)cc1; > 30 µM (inactive)

----------
# Target Of Assay: Serine/threonine-protein kinase 4 (Homo sapiens, UniProt Q13043); note: in the data inactive means no Kd found up to 30 µM
# Sequence (Q13043 whole entry): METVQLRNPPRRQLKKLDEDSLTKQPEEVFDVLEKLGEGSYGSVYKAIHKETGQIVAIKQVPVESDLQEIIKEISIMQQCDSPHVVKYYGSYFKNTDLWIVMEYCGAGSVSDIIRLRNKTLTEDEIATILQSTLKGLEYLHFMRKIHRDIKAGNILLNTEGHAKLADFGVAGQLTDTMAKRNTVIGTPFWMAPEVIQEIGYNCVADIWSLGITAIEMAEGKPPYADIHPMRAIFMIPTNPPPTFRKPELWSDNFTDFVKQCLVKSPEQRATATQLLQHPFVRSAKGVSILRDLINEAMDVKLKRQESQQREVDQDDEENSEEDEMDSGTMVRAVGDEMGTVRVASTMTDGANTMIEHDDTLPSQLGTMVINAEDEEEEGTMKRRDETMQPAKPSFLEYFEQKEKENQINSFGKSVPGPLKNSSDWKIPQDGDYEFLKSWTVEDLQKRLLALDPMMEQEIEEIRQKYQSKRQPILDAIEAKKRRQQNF
Calls of active or inactive are those of the source.
Quantity Name: Kd

1. NC(=O)c1ccc(N(C(N)=O)c2c(F)cccc2F)nc1-c1ccc(F)cc1F; > 30 µM (inactive)
2. COc1cc2nccc(Oc3ccc(NC(=O)C4(C(=O)Nc5ccc(F)cc5)CC4)cc3)c2cc1OC [CABOZANTINIB]; > 30 µM (inactive)
3. CCN1CCN(Cc2ccc(Nc3ncc(F)c(-c4cc(F)c5nc(C)n(C(C)C)c5c4)n3)nc2)CC1; > 30 µM (inactive)
4. COc1cc(Nc2ncc(F)c(Nc3ccc4c(n3)N(COP(=O)(O)O)C(=O)C(C)(C)O4)n2)cc(OC)c1OC; > 30 µM (inactive)
5. Cc1cc(C(=O)Nc2cc(Oc3ccc4nc(NC(=O)C5CC5)cn4n3)ccc2C)n(C)n1; > 30 µM (inactive)

----------
# Lookup of reported Kd keyed by entry
# Target Of Assay: Dual specificity protein kinase CLK1 (Homo sapiens, UniProt P49759); note: in the data inactive means no Kd found up to 30 µM
# Sequence (P49759 whole entry): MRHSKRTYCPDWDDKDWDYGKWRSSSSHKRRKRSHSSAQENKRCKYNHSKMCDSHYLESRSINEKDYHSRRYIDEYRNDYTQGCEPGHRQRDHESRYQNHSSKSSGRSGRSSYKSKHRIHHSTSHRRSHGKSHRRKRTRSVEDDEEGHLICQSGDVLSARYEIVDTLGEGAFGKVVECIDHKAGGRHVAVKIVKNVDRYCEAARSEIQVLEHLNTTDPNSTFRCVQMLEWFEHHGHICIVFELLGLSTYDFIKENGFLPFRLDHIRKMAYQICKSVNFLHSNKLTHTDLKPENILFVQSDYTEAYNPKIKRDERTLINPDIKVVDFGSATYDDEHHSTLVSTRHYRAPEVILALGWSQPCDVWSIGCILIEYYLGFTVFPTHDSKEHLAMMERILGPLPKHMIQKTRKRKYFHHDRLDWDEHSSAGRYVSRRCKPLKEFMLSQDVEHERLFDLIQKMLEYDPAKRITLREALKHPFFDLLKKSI
Active and inactive are the calls of the source.
Quantity Name: Kd

1. Cc1cc(C(=O)Nc2cc(Oc3ccc4nc(NC(=O)C5CC5)cn4n3)ccc2C)n(C)n1; > 30 µM (inactive)
2. CNC(=O)c1ccc(Nc2ncc(C(F)(F)F)c(NCc3nccnc3N(C)S(C)(=O)=O)n2)cc1; > 30 µM (inactive)
3. COc1ccc(-c2ccc3ncc4c(c3c2)n(-c2ccc(N3CCNCC3)c(C(F)(F)F)c2)c(=O)n4C)cn1 [BGT-226 FREE BASE]; 0.246 µM (active)
4. Cc1c(NC(=O)OC[C@@H]2COCCN2)cn2ncnc(Nc3ccc4c(cnn4Cc4cccc(F)c4)c3)c12; > 30 µM (inactive)
5. O[C@H]1CC[C@H](Nc2ncc3nc(Nc4c(F)cc(F)cc4F)n([C@H]4CCOC4)c3n2)CC1; > 30 µM (inactive)
6. CC(C)CC(=O)Nc1[nH]nc2c1CN(C(=O)C1CCN(C)CC1)C2(C)C; 2.18 µM (active)
7. Cc1c(Cn2c(C)nc3c(C(=O)O)cc(N4CCOCC4)cc32)cccc1C(F)(F)F; > 30 µM (inactive)
8. C=CCN(/C=C1/C(=O)O[C@H](COC)[C@@]2(C)C1=C(O)C(=O)C1=C2[C@H](OC(C)=O)C[C@]2(C)C(=O)CC[C@@H]12)CC=C; > 30 µM (inactive)
9. CCN(CCCOc1ccc2c(Nc3cc(CC(=O)Nc4cccc(F)c4)n[nH]3)ncnc2c1)CCOP(=O)(O)O; > 30 µM (inactive)
10. COc1cccc(Nc2ncnn3ccc(CN4CC[C@@H](N)[C@H](O)C4)c23)c1; > 30 µM (inactive)
11. COc1cc2nccc(Oc3ccc(NC(=O)C4(C(=O)Nc5ccc(F)cc5)CC4)cc3)c2cc1OC [CABOZANTINIB]; > 30 µM (inactive)
12. Cn1c(=O)c(F)c(Nc2ccc(I)cc2F)c2c(=O)n(C[C@@H](O)CO)cnc21; > 30 µM (inactive)
13. CN(c1ncccc1CNc1nc(Nc2ccc3c(c2)CC(=O)N3)ncc1C(F)(F)F)S(C)(=O)=O; 0.363 µM (active)
14. CNC(=O)c1cc(COc2nnc(Nc3ccc(Cl)cc3)c3ccoc23)ccn1; > 30 µM (inactive)
15. O=S(=O)(c1cccc2c(O)nccc12)N1CCCNCC1 [HYDROXYFASUDIL]; 24.1 µM (active)
16. CC(C)(O)CC(=O)NCCn1ccc2ncnc(Nc3ccc(Oc4cccc(C(F)(F)F)c4)c(Cl)c3)c21; > 30 µM (inactive)
17. COc1cc(Nc2ncc(F)c(Nc3ccc4c(n3)N(COP(=O)(O)O)C(=O)C(C)(C)O4)n2)cc(OC)c1OC; > 30 µM (inactive)
18. C=CC(=O)Nc1cc(Nc2nccc(-c3cn(C)c4ccccc34)n2)c(OC)cc1N(C)CCN(C)C; > 30 µM (inactive)
19. COCCN1CCN(Cc2ccc(-c3n[nH]c4c3C(=O)c3c(NC(=O)NN5CCOCC5)cccc3-4)cc2)CC1; 0.002 µM
20. C=CCn1c(=O)c2cnc(Nc3ccc(N4CCN(C)CC4)cc3)nc2n1-c1cccc(C(C)(C)O)n1; > 30 µM (inactive)
21. CNC(=O)c1cccc(-c2ccc3c(N4CCOC[C@@H]4C)nc(N4CCOC[C@@H]4C)nc3n2)c1; > 30 µM (inactive)
22. CN1CCN(c2nc(C3=C(c4c[nH]c5ccccc45)C(=O)NC3=O)c3ccccc3n2)CC1; > 30 µM (inactive)
23. COc1ccc2c(OCc3nnc4ccc(-c5ccccc5)nn34)ccnc2c1; > 30 µM (inactive)
24. COc1cc2ncnc(Nc3ccc(O)cc3)c2cc1OC; > 30 µM (inactive)
25. O=C(Nc1ccc(OC(F)(F)F)cc1)c1sccc1NCc1ccnc2ccccc12; > 30 µM (inactive)
26. CC[C@@](C)(Nc1ccnc(-c2c[nH]c3ncccc23)n1)C(=O)NCC(F)(F)F; > 30 µM (inactive)
27. COc1cccc2cc(-c3nc([C@H]4CC[C@H](C(=O)O)CC4)n4ncnc(N)c34)[nH]c12; > 30 µM (inactive)
28. Cc1cc(Nc2nc(N[C@@H](C)c3ncc(F)cn3)ncc2Cl)n[nH]1; > 30 µM (inactive)
29. S=C(NCc1ccc2c(c1)OCO2)N1CCN(c2ncnc3c2oc2ccccc23)CC1; > 30 µM (inactive)
30. N#CCNC(=O)c1ccc(-c2ccnc(Nc3ccc(N4CCOCC4)cc3)n2)cc1; 0.918 µM
31. NC(=O)c1ccc(N(C(N)=O)c2c(F)cccc2F)nc1-c1ccc(F)cc1F; > 30 µM (inactive)
32. C=CC(=O)Nc1cccc(Nc2nc(Nc3ccc(N4CCN(C(C)=O)CC4)cc3OC)ncc2C(F)(F)F)c1; 0.651 µM (active)
33. Cn1c(=O)n(-c2ccc(C(C)(C)C#N)cc2)c2c3cc(-c4cnc5ccccc5c4)ccc3ncc21; > 30 µM (inactive)
34. COc1cc2ncnc3c2cc1OCCCCCN(C)Cc1ccc(Br)cc1N3; > 30 µM (inactive)
